Data origin, for the record: PubChem BioAssay

targetOrTestSystem: ATP-binding cassette sub-family B member 6 (Homo sapiens)
protocol: ABCB6 transporter inhibitors, pilot screen, K562-ABCB6 cells, flow cytometry, validation set (AID 588550);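 note: 0% = DMSO wells and 100% = benzethonium chloride 70 µM positive control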
statedConditions: K562-ABCB6 porphyrin accumulation, 1 h, at 10 µM, active compounds read high
Measured inhibition by item

- molecule: "CC(NC(=O)c1ccc(OC2CCN(Cc3ccccn3)CC2)cc1)c1ccccc1 (stereo unspecified)"
  measureUnit: "%"
  inhibition: 6
- molecule: "O=C(NCCc1cccc(F)c1)[C@@H]1CSC2c3ccccc3C(=O)N21 (stereo partly specified)"
  measureUnit: "%"
  inhibition: 7
- molecule: "Cc1cc(-c2ccccc2)nnc1NCCN1CCOCC1"
  measureUnit: "%"
  inhibition: 19
- molecule: "CC(=O)N1N=C(c2cccs2)CC1c1ccc(C)o1 (stereo unspecified)"
  measureUnit: "%"
  inhibition: 9
- molecule: "O=C(CC(C(=O)O)c1c[nH]c2ccccc12)c1ccccc1 (stereo unspecified)"
  measureUnit: "%"
  inhibition: 3
- molecule: "CC(C)NC[C@@H](O)c1ccc(O)c(O)c1"
  measureUnit: "%"
  inhibition: 2
- molecule: "Cn1c(=O)oc2cc(S(=O)(=O)N3CCc4ccccc4C3)ccc21"
  measureUnit: "%"
  inhibition: 10
- molecule: "O=C(/C=C/c1ccc2c(c1)OCO2)c1ccccn1"
  measureUnit: "%"
  inhibition: -8
- molecule: "O=c1oc2c(CN3CCN(CCO)CC3)c(O)ccc2cc1-c1ccccn1"
  measureUnit: "%"
  inhibition: 15
- molecule: "CCCCNc1cc(C(=O)O)cc(S(N)(=O)=O)c1Oc1ccccc1"
  measureUnit: "%"
  inhibition: 11
- molecule: "CC1(C)S[C@@H]2[C@H](NC(=O)C(C(=O)O)c3ccccc3)C(=O)N2[C@H]1C(=O)O (stereo partly specified)"
  measureUnit: "%"
  inhibition: 9
